# Test system: biotinyl-Val-oxazolone
# protocol-description: self-aminoacylation, catalytic enhancement (BVO) (fold over background); higher = more active; k-Seq, kA / k0A0; sequences stand for … in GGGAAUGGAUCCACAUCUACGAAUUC…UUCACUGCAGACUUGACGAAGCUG
Fewer inactive variants are shown than the library holds.
Provide the recorded self-aminoacylation for the entries that follow.

Consider the worked cases shown below.
AUUUACUUAGGUCAUCGGGUG [Fam2.2 aminoacylation ribozyme variant] ... 3.18
CCGCUCUUCAAGCAAUCGGUC [Fam1B.1 aminoacylation ribozyme variant] ... 1.76
CUCCUUCAAAUAAUCGGUCUG [Fam1A.1 aminoacylation ribozyme variant] ... 0.835
CCACACUUCAACCAAUCGGUA [Fam1B.1 aminoacylation ribozyme variant] ... 1.1
AUUACCCUGGUGAUCGAAUGA [Fam2.1 aminoacylation ribozyme variant] ... 1.09

Quick one: give me self-aminoacylation for each item below, same order please.
1. AUUACCCUCGCCAUCGAGUGA [Fam2.1 aminoacylation ribozyme variant]
2. CUAAUUCAAACUAUCGGUCUG [Fam1A.1 aminoacylation ribozyme variant]
3. AUUCACCUAGAUCAUCCGGUG [Fam2.2 aminoacylation ribozyme variant]
4. AUUAGCCUGGUCAUAGAGUGA [Fam2.1 aminoacylation ribozyme variant]

3.97
0.936
3.32
3.18

* * *

# System: biotinyl-Met-oxazolone
# protocol-description: self-aminoacylation, catalytic enhancement (BMO) (fold over background); higher = more active; k-Seq, kA / k0A0; sequences stand for … in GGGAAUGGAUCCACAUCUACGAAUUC…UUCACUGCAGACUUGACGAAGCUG
Variants at the floor of the assay were thinned out.
endpoint: self-aminoacylation
Numbers only.

Consider the worked cases shown below.
AUCCACCUAGGUCUUCGGGUG [Fam2.2 aminoacylation ribozyme variant] ... 5.09
AUUCACCUAGGUCACCGAGUG [Fam2.2 aminoacylation ribozyme variant] ... 3.57
CUACUUCUAUCAAUCGGUCUG [Fam1A.1 aminoacylation ribozyme variant] ... 0.636
AAGAUUGCCAAUAGUCGCAAG [Fam3.1 aminoacylation ribozyme variant] ... 1.8

Quick one: give me self-aminoacylation for each item below, same order please.
1. AUUCACCUAGGUCAUCGGGCC [Fam2.2 aminoacylation ribozyme variant]
2. CUACUUUAAACAAUCGGACUG [Fam1A.1 aminoacylation ribozyme variant]
3. AAGAUAGCUAAUAGUCGCAAG [Fam3.1 aminoacylation ribozyme variant]
4. CUACUUCAAACCAUCGGUCAG [Fam1A.1 aminoacylation ribozyme variant]
5. CCACACUUAAAGCAAUCCGUC [Fam1B.1 aminoacylation ribozyme variant]
6. AUUCAAAUAGGUCAUCGGGUG [Fam2.2 aminoacylation ribozyme variant]
7. AUUACCCUCGCCAUCGAGUGA [Fam2.1 aminoacylation ribozyme variant]

[3.51, 0.874, 1.57, 0.609, 0.879, 5.54, 6.67]

Quick one: give me self-aminoacylation for each item below, same order please.
1. CUAGUUCAAACAGUCGGUCUG [Fam1A.1 aminoacylation ribozyme variant]
2. CCACACUUCGAGCAAUCGGAC [Fam1B.1 aminoacylation ribozyme variant]
3. AAGGUUUCUAAUAGUCGCAAG [Fam3.1 aminoacylation ribozyme variant]
4. AUUCACCUUGGUCAUAGGGUG [Fam2.2 aminoacylation ribozyme variant]
5. AAGGUUGCUAAUAGUCGCUAG [Fam3.1 aminoacylation ribozyme variant]
6. AUUCACCUAAGUCAUCGGUUG [Fam2.2 aminoacylation ribozyme variant]
7. AUUACCAUGGUCAGCGAGUGA [Fam2.1 aminoacylation ribozyme variant]

1. 0.947
2. 0.897
3. 1.04
4. 1.21
5. 1.03
6. 1.14
7. 5.49

* * *

Provide the recorded self-aminoacylation for the entries that follow.
# Tested on: biotinyl-Leu-oxazolone
# protocol-description: self-aminoacylation, catalytic enhancement (BLO) (fold over background); higher = more active; k-Seq, kA / k0A0; sequences stand for … in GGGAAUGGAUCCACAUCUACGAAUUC…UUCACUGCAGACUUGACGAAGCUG
This sample holds only a part of the variants without activity.
Give bare numbers.

Consider the worked cases shown below.
CUACUUCAAACAAUAGGGCUG [Fam1A.1 aminoacylation ribozyme variant] ... 0.523
AACUUUGCUAAUAGUCCCAAG [Fam3.1 aminoacylation ribozyme variant] ... 1.6
AUUGCCCUGGUCAUCGACUGA [Fam2.1 aminoacylation ribozyme variant] ... 0.735
AAAUUUGCUAAUAGUCACAAG [Fam3.1 aminoacylation ribozyme variant] ... 1.26
CUUACCCUUGUCAUCGAGUGA [Fam2.1 aminoacylation ribozyme variant] ... 4.14
AUUCACGUAGGGCAUCGGGUG [Fam2.2 aminoacylation ribozyme variant] ... 6.02
CCACACUUCAAUCAAUCUGUC [Fam1B.1 aminoacylation ribozyme variant] ... 0.343
UUUACCCUGGUCAUCGAGUGG [Fam2.1 aminoacylation ribozyme variant] ... 27.3
AAGAUUGCUAAUAGUCGGAAG [Fam3.1 aminoacylation ribozyme variant] ... 0.837
CUACUUCAAACCAUCGGCCUG [Fam1A.1 aminoacylation ribozyme variant] ... 1.45

Quick one: give me self-aminoacylation for each item below, same order please.
1. CUACUCUAAACAAUCGGUCUG [Fam1A.1 aminoacylation ribozyme variant]
2. CCAAACUUCAAUCAAUCGGUC [Fam1B.1 aminoacylation ribozyme variant]
3. AAGUUUGCUAAUAGUCGCAGU [Fam3.1 aminoacylation ribozyme variant]
4. AUUCACCAAGGUCAUCGGGUG [Fam2.2 aminoacylation ribozyme variant]
5. AUUACCCUGGUCAUCGAGUAA [Fam2.1 aminoacylation ribozyme variant]
6. CCACUCUUCAAACAAUCGGUC [Fam1B.1 aminoacylation ribozyme variant]
7. CGACACUUCAAGCAUUCGGUC [Fam1B.1 aminoacylation ribozyme variant]
8. CUACUUAAAACAAUCGGUCUU [Fam1A.1 aminoacylation ribozyme variant]

1: 0.727; 2: 1.73; 3: 1.66; 4: 12.3; 5: 26.7; 6: 2.04; 7: 1.55; 8: 0.617

* * *

# System: biotinyl-Met-oxazolone
# protocol-description: self-aminoacylation, catalytic enhancement (BMO) (fold over background); higher = more active; k-Seq, kA / k0A0; sequences stand for … in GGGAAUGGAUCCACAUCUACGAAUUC…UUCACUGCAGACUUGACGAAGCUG
This sample holds only a part of the variants without activity.
endpoint: self-aminoacylation
Give bare numbers.

Consider the worked cases shown below.
AAGAUUGCAAAUAGUCGCAAG [Fam3.1 aminoacylation ribozyme variant] ... 1.27
CCACAUUUCAAGGAAUCGGUC [Fam1B.1 aminoacylation ribozyme variant] ... 1.34
CCACUUCAAACAAUCGGUCUC [Fam1A.1 aminoacylation ribozyme variant] ... 2.08

Quick one: give me self-aminoacylation for each item below, same order please.
1. AUUACCCUGGUCACCCAGUGA [Fam2.1 aminoacylation ribozyme variant]
2. CCACACUUCAAGCUAUCGGUA [Fam1B.1 aminoacylation ribozyme variant]
3. CUUACCCUGGUCAUCGAAUGA [Fam2.1 aminoacylation ribozyme variant]
4. AUUCACGGAGGUCAUCGGGUG [Fam2.2 aminoacylation ribozyme variant]
5. AAUCACCUAGGACAUCGGGUG [Fam2.2 aminoacylation ribozyme variant]
6. AUUACCCUCAUCAUCGAGUGA [Fam2.1 aminoacylation ribozyme variant]

[7.54, 0.992, 0.915, 7.36, 4.09, 10.5]

* * *

# System: biotinyl-Trp-oxazolone
# protocol-description: self-aminoacylation, catalytic enhancement (BWO) (fold over background); higher = more active; k-Seq, kA / k0A0; sequences stand for … in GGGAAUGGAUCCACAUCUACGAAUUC…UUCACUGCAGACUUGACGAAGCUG
Variants at the floor of the assay were thinned out.
endpoint: self-aminoacylation
Numbers only.

CUACUUCAACCAAUCGGUCAG [Fam1A.1 aminoacylation ribozyme variant] ... 3.33

Quick one: give me self-aminoacylation for each item below, same order please.
1. AAGUUGGCUAAUAGUCGCAAC [Fam3.1 aminoacylation ribozyme variant]
2. AUUUCCCUGGUCCUCGAGUGA [Fam2.1 aminoacylation ribozyme variant]
3. CGACCUCAAACAAUCGGUCUG [Fam1A.1 aminoacylation ribozyme variant]

1: 1.93; 2: 3.91; 3: 4.64

* * *

# Test system: biotinyl-Leu-oxazolone
# protocol-description: self-aminoacylation, catalytic enhancement (BLO) (fold over background); higher = more active; k-Seq, kA / k0A0; sequences stand for … in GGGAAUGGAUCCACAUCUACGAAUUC…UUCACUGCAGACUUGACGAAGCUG
Fewer inactive variants are shown than the library holds.
Each entry falls in a class defined on self-aminoacylation; the bands are group A: < 0.6; group B: ≥ 0.6 and < 6; group C: ≥ 6

Some solved cases for reference:
AGUCACCUAGGUCAUCGGGUU [Fam2.2 aminoacylation ribozyme variant] ... group C
AUCCACCUAGAUCAUCGGGUG [Fam2.2 aminoacylation ribozyme variant] ... group B
AUUCAGCUAGGUCACCGGGUG [Fam2.2 aminoacylation ribozyme variant] ... group C

In plain terms, what class is CAGUUUGCUAACAGUCGCAAG [Fam3.1 aminoacylation ribozyme variant] ?
group B

In plain terms, what class is AUUACCCUGGUCAUCACGUGA [Fam2.1 aminoacylation ribozyme variant] ?
group C

In plain terms, what class is AAGUUUGAUAAUAGACGCAAG [Fam3.1 aminoacylation ribozyme variant] ?
group A

In plain terms, what class is CUACUUCAAUCAAUCUGUCUG [Fam1A.1 aminoacylation ribozyme variant] ?
group A

In plain terms, what class is CCACACUUCAAGCAAUCUGUC [Fam1B.1 aminoacylation ribozyme variant] ?
group A

In plain terms, what class is AAGAUUGCUAAUAGUCGCAAG [Fam3.1 aminoacylation ribozyme variant] ?
group B
